TARGET_OR_SYSTEM: pooled human IgG (human IgG1, 2, 3 and 4)
METRIC: Enzyme Activity Endpoint Assay (purified): scIgG (ng/µL)
// return numeric value only (unit: ng/µL, not printed)

[
  {
    "PROTEIN": "PRT-577 (protein) MANQEIRYSKATPSTITSVWTKGVTPPENFIYNEDVLHAPYLANQGWYDITKTFNGKDDLLCGAATAGNMLHWWFDQNKEQIERYLKEHPEKQKINFNGEQMFDVKEAIDTKDSQTNSKLFEYFKDKAFPYLSTKHLGVFPDHVIDMFINGYRLSLTNHGPTPVKEQTKDPRGGIFDAVFTRGDQSKLLTSRHDFKEKTLNEISQLIKQELTEGKALGLSHTYANVRINHVINLWGADFNAEGNLEAIYVTDSDSNASIGMKKYYVGVNSAGKVAISAKEIEGDNIGAQVLGLFTLSTGQDIWQQTNLEHHHHHH",
    "UNIT": "ng/µL",
    "OBS_VALUE": 230
  }
]

Prompt: What value of Enzyme Activity Endpoint Assay (purified): scIgG has been recorded for this entry: PRT-441 (protein) MSQTEDSESLQRLRDIEDFQAEKKKQNVVYTKWLDGVDVKDHDFRKIVDGNIAYYATPLLNGRGFYDINKDFNRDSDKCAAAVAANMFHYWLDRNRDNVDRFLRQNPEKHGIIELPDGQLKLSDFLNTYESDDGYRDKSKLFDFISNNFNGPVWTDKLLDNYINGYAYNYKYGRTIEDPTKNTSKINFFKEVFNEKILTNNHSIRNQNEFSVLLSEALYTGKAIGLSYGPAGTRHSLGHIISVWGADLDADGNVVAIYVTDSDDKKLTIGDERVGLKRYKISTDDEGRLRLTAYEETHNTGGQIRGLWTLDTGKQAWADYFDKTEQTGTDQAEQ
Completion: 217

Data credit: patent US20250027068
